# MEASURED_ON: LRRK2 (Homo sapiens, UniProt Q5S007, G2019S)
# Construct: purchased Invitrogen PV4882
# Sequence (Q5S007 whole entry G2019S): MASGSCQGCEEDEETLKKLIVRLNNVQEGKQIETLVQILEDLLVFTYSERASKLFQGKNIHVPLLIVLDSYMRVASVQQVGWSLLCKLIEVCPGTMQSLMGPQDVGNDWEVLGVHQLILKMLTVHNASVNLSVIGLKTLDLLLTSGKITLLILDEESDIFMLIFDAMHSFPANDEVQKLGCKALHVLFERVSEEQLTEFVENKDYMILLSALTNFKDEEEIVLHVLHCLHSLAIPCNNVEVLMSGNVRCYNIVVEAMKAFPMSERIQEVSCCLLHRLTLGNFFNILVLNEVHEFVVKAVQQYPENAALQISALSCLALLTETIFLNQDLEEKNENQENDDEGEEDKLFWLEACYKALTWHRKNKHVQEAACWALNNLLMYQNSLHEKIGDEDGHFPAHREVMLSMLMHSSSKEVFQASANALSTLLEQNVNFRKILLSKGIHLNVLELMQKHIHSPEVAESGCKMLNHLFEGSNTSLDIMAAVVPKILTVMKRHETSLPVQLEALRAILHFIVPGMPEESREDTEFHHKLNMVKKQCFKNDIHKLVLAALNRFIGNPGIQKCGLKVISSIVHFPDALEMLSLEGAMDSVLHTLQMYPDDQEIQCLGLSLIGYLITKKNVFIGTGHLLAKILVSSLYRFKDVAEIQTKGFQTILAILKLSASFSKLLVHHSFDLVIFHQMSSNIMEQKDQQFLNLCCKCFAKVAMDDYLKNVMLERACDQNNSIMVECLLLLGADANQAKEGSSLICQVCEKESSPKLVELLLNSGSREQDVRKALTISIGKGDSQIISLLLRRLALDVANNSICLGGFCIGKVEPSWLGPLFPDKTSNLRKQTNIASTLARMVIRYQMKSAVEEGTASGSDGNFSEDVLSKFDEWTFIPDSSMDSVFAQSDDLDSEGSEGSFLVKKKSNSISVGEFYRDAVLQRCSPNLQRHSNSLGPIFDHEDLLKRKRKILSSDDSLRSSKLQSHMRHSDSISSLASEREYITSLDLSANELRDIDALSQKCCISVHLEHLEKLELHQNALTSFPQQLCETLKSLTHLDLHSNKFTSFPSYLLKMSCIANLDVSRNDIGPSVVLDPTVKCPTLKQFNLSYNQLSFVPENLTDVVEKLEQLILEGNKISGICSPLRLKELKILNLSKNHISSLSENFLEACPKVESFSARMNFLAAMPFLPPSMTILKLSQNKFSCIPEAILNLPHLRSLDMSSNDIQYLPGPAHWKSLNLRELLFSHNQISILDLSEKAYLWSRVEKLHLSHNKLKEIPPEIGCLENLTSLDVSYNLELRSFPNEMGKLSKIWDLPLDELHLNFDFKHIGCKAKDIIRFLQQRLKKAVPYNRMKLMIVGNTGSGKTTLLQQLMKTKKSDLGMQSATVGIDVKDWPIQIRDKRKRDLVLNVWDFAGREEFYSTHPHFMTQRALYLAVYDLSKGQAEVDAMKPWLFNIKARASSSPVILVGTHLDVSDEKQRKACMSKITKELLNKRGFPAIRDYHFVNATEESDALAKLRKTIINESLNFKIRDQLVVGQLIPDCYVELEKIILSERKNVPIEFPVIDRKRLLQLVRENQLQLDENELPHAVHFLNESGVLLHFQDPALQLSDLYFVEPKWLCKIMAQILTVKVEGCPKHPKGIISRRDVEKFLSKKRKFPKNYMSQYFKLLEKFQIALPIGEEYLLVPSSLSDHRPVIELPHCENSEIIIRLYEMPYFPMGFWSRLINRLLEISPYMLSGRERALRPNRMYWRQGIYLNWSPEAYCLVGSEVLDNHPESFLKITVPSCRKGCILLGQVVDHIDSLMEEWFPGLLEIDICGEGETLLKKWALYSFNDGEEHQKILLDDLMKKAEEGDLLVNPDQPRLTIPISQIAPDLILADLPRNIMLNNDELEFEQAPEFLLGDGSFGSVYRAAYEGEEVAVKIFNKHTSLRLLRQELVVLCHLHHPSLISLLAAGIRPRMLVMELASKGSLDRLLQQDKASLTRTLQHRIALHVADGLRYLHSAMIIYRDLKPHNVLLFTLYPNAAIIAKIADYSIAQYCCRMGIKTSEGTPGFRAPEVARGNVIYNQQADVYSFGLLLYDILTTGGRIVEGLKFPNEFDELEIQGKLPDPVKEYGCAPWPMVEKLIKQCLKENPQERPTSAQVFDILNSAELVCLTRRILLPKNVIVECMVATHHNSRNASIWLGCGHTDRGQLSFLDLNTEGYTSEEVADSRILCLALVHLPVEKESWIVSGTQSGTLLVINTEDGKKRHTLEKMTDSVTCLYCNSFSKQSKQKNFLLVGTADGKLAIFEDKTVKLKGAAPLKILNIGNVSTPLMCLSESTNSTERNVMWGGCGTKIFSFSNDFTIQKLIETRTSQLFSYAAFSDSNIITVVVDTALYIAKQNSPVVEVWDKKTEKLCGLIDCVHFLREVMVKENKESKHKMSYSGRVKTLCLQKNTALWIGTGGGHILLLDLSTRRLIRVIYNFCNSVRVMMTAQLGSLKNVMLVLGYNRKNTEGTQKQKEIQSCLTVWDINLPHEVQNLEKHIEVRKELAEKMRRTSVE
# METHOD_SUMMARY: In Vitro LRRK2 LabChip Assay (LRRK2 Ki)
# Type: biochemical
# SETUP_CONDITIONS: Table 5 compounds (formula I)
Provide the recorded Ki for the entries that follow.
Expressed in nM, but write only the number.

Ask: If you can, please state the reported Ki value of CNc1nc(Nc2cc(C)c(C(=O)N3CCOCC3)cc2OCCF)ncc1C(F)(F)F .
Reply: 2.34

Ask: Can you share its Ki? I mean this compound: CCNc1nc(Nc2ccc(C(=O)N3CCOCC3)c(F)c2F)ncc1C(F)(F)F
Reply: 2.99

Ask: Can you look up the measured Ki of CNc1nc(Nc2ccc(C(=O)N3CCOCC3)c(F)c2F)ncc1Cl for me?
Reply: 14.5

Ask: For the compound shown here, COc1cc(Nc2ncc(C(F)(F)F)c(NC3CCC3)n2)c(F)cc1C(=O)N1CCOCC1 , give the reported Ki.
Reply: 0.353

These data points were gathered from patent US8809331B2.
